- Tested on: Acinetobacter baumannii
- testMethodNotes: Antibacterial activity against Acinetobacter baumannii ATCC 19606
- Type: functional
reportedEndpoint: MIC

[[record]]
molecule = "Cl.N=C(N)N/N=C/c1ccc(-c2ccc(/C=N/Nc3ccc(F)cc3F)cc2)cc1"
result = "> 500 µM"


Given item Cl.Cl.N=C(N)N/N=C/c1ccc(-c2cccc(/C=N/NC(=N)N)c2)cc1 , the value recorded as its MIC is > 500 µM

Given item CC1(C)S[C@@H]2[C@H](NC(=O)[C@H](N)c3ccccc3)C(=O)N2[C@H]1C(=O)O [AMPICILLIN] , the value recorded as its MIC is > 250 µM

Where do the numbers come from? From ChEMBL document CHEMBL3871280.
